Tested on: WPMY1-TUBA1B-RELA
assay.protocol: phenotypically active (imaging signature differs from DMSO and reproducible) at any of 0.3-9 uM (binary (1 = active, 0 = inactive)); higher = active
test.context: treatment time: 24 h
Where a name gives a salt, the structure may show the parent alone.
Classes used: active, inactive

molecule: O=NN(CCCl)C(=O)NCCCl [carmustine]
classification: inactive
--
molecule: CC(=O)c1ccc(S(=O)(=O)NC(=O)NC2CCCCC2)cc1 [acetohexamide]
classification: inactive
--
molecule: NCCCC[C@H](N[C@@H](CCc1ccccc1)C(=O)O)C(=O)N1CCC[C@H]1C(=O)O [lisinopril]
classification: inactive
--
molecule: COc1cc2c(N3CCN(C(=O)Nc4ccc(OC(C)C)cc4)CC3)ncnc2cc1OCCCN1CCCCC1 [tandutinib]
classification: active
--
molecule: Cc1cc(C)cc(C(=O)NOCCCCCC(=O)NO)c1
classification: active
--
molecule: Cn1cnc([N+](=O)[O-])c1Sc1ncnc2nc[nH]c12 [azathioprine]
classification: inactive
--
molecule: O=c1cc(-c2ccc(O)cc2)oc2c(C3O[C@H](CO)[C@@H](O)[C@H](O)[C@H]3O)c(O)cc(O)c12 (some centres undefined) [Vitexin]
classification: inactive
--
molecule: CN(C)C(=N)NC(=N)N [Metformin hydrochloride]
classification: inactive
--
molecule: COCC(=O)O[C@]1(CCN(C)CCCc2nc3ccccc3[nH]2)CCc2cc(F)ccc2[C@@H]1C(C)C [mibefradil]
classification: active

* * *

Reported phenotypically active values are given for each entry in this list.
System: HepG2-CANX-COX4
assay.protocol: phenotypically active (imaging signature differs from DMSO and reproducible) at any of 0.3-9 uM (binary (1 = active, 0 = inactive)); higher = active
test.context: treatment time: 24 h
Structures can show the parent of a compound that is named as a salt.
reported.endpoint: phenotypically active

molecule: CCCCOc1c(C(=O)c2c(F)cc(C)cc2F)cnc2[nH]ncc12
measurement: 0
//
molecule: NCCNS(=O)(=O)c1cccc2cnccc12 [H-9 dihydrochloride]
measurement: 0
//
molecule: O=C(O)C(CO)c1ccccc1 (stereo not drawn)
measurement: 0
//
molecule: COc1cc(/C=C/C(=O)N2CCC=CC2=O)cc(OC)c1OC
measurement: 1
//
molecule: COc1cc2nccc(Oc3ccc(NC(=O)C4(C(=O)Nc5ccc(F)cc5)CC4)cc3)c2cc1OC
measurement: 0
//
molecule: C/N=C(\NC#N)NCCSCc1nc[nH]c1C
measurement: 0
//
molecule: CCC1(O)CC2CN(CCc3c([nH]c4ccccc34)C(C(=O)OC)(c3cc4c(cc3OC)N(C)C3C(O)(C(=O)OC)C(OC(C)=O)C5(CC)C=CCN6CCC43C65)C2)C1 (stereo not drawn) [Vinblastine sulfate]
measurement: 1
//
molecule: CCCC(=O)Nc1ncnc2c1ncn2[C@@H]1O[C@@H]2COP(=O)(O)O[C@H]2[C@H]1OC(=O)CCC [Dibutyryl-cAMP, sodium salt]
measurement: 0

* * *

Test system: A549-ACTB-RAB5A
assay.protocol: lowest phenotypically active concentration; higher = less potent
test.context: treatment time: 24 h
reported.endpoint: lowest phenotypically active concentration (µM)

molecule: N=C(N)c1ccc(OCCCCCOc2ccc(C(=N)N)cc2)cc1
qual: =
measurement: 1
--
molecule: CC(C)NCCCn1c(Sc2cc3c(cc2I)OCO3)nc2c(N)ncnc21
qual: ≤
measurement: 0.3
--
molecule: Cc1ncc(-c2ccnc(Nc3ccc(S(C)(=O)=O)cc3)n2)n1C(C)C
qual: ≤
measurement: 0.3
--
molecule: COc1ccc(S(=O)(=O)N(CCO)c2ccccc2CN(C)C/C=C/c2ccc(Cl)cc2)cc1
qual: =
measurement: 3
--
molecule: CN1CCCC(n2nc(Cc3ccc(Cl)cc3)c3ccccc3c2=O)CC1 (centres undefined)
qual: =
measurement: 3
--
molecule: COc1c(Nc2cc(C)[nH]n2)nc(Sc2ccc(S(=O)(=O)Cc3cccc([N+](=O)[O-])c3F)cc2F)nc1N1CCOCC1
qual: =
measurement: 3
--
molecule: COc1ccccc1-c1c[nH]c2ncc(-c3cncc(C(=O)N(C)C)c3)cc12
qual: ≤
measurement: 0.3
--
molecule: C=CC(=O)Nc1cccc(Nc2nc(Nc3ccc(OCCOC)cc3)ncc2F)c1
qual: =
measurement: 3
--
molecule: CSc1ccc2c(c1)N(CCC1CCCCN1C)c1ccccc1S2 (centres undefined)
qual: =
measurement: 3
--
molecule: Clc1ccc(N/N=C(\c2ccccc2)c2ccccn2)nc1
qual: =
measurement: 1
--
molecule: Nc1nc(OCC2CCCCC2)c2nc[nH]c2n1
qual: =
measurement: 9
--
molecule: Cc1c[nH]c2ncnc(-c3ccc(NC(=O)N(CCO)c4ccccc4)cc3)c12
qual: =
measurement: 9
--
molecule: O=C(CCCCSc1nc(-c2ccc(-c3ccccc3)cc2)cc(=O)[nH]1)NO
qual: ≤
measurement: 0.3
--
molecule: O=C(O)c1ccc(Nc2ncc3c(n2)-c2ccc(Cl)cc2C(c2c(F)cccc2F)=NC3)cc1
qual: ≤
measurement: 0.3
--
molecule: O=C(CCCCCCC(=O)Nc1cccnc1)NO [Pyroxamide]
qual: =
measurement: 3
--
molecule: CCOC(=O)c1c(CSc2ccccc2)n(C)c2cc(Br)c(O)c(CN(C)C)c12
qual: =
measurement: 9
--
molecule: COc1cc(OC)c2c(=O)[nH]c(-c3cc(C)c(OCCO)c(C)c3)nc2c1
qual: =
measurement: 9
--
molecule: O[C@H](CNC[C@H](O)[C@@H]1CCc2cc(F)ccc2O1)[C@@H]1CCc2cc(F)ccc2O1
qual: =
measurement: 3
--
molecule: CC(CN(C)C)CN1c2ccccc2Sc2ccccc21.CC(CN(C)C)CN1c2ccccc2Sc2ccccc21 (centres undefined)
qual: =
measurement: 9

Data provenance: the supplement of paper PMC7411054
